target: NSD2 [1-1365] (Homo sapiens (Human)); experiment: LC-MS/MS-based NSD2 enzymatic assay (SAH production); assay type: biochemical; conditions: NSD2 biochemical activity, class symbols; read-out: NSD2 IC50
Sequence (O96028 whole entry): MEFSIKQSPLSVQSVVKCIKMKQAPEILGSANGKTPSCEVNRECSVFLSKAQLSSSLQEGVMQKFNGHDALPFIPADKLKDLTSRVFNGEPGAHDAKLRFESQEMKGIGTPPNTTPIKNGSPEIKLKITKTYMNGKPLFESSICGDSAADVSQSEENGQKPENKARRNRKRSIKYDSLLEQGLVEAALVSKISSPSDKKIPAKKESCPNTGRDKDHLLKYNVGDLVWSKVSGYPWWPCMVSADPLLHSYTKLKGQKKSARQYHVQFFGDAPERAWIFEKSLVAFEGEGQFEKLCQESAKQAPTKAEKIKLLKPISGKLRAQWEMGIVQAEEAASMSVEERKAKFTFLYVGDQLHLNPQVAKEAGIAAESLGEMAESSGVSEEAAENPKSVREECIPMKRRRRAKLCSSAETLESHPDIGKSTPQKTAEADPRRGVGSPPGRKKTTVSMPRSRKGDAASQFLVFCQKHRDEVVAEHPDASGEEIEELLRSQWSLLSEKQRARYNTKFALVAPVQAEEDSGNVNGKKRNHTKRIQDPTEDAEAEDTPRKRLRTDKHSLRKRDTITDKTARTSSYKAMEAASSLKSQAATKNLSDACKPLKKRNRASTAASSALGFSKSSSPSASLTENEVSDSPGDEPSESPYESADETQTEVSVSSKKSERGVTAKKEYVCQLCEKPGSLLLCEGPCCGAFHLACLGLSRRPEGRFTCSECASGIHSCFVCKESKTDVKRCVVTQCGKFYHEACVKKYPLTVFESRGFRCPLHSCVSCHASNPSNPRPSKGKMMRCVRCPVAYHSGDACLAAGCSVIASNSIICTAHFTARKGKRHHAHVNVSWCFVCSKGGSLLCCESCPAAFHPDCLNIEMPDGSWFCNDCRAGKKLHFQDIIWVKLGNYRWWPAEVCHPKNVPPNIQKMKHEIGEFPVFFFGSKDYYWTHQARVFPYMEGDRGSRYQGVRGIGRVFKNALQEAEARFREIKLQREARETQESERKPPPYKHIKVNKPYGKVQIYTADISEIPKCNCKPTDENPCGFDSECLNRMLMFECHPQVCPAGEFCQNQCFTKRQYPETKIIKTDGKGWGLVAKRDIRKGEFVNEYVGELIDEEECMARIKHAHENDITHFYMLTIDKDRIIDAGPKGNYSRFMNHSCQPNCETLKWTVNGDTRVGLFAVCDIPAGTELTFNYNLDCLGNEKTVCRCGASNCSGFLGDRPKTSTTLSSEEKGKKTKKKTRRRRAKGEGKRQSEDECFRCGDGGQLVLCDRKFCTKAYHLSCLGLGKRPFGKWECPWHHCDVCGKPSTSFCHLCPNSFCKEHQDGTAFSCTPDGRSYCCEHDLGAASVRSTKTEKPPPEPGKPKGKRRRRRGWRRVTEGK
OUTCOME_MEASURE: IC50

query: IC50 lookup needed for Nc1ncnc2c1ncn2Cc1cc(-c2ccc(OC(F)F)c(F)c2)ncc1N1CCC[C@](N)([C@@H](O)C(F)F)C1 [Example 119] , thanks.
result: 1 to 10 nM

query: Note, next up: CC(C)OC[C@@]1(N)CCCN(c2cnc(-c3ccc(F)cc3)cc2Cn2cnc3c(N)ncnc32)C1 [Example 37]
result: 10 to 1000 nM

query: Note, next up: C=CC(=O)Nc1ccc(-c2cc(Cn3cnc4c(N)ncnc43)c(N3CCCC(N)(CC(F)F)C3)cn2)cc1 (centres unmarked) [Example 76]
result: 10 to 1000 nM

query: Note, next up: COc1ccc(-c2cc(Cn3cnc4c(N)ncnc43)c(N3CCC[C@](N)(COCC(F)(F)F)C3)cn2)cc1F [Example 39]
result: 10 to 1000 nM

query: Note, next up: COC[C@@]1(N)CCCN(c2cnc(-c3cccc(F)c3)cc2Cn2cnc3c(N)ncnc32)C1 [Example 24]
result: 1 to 10 nM

query: Note, next up: Nc1ncnc2c1ncn2Cc1cc(-c2ccc(C(F)(F)F)cc2F)ncc1N1CCC[C@](N)([C@@H](O)C(F)F)C1 [Example 141]
result: 10 to 1000 nM

query: Note, next up: Cc1ccc(-c2cc(Cn3cnc4c(N)ncnc43)c(N3CCC[C@](N)([C@@H](O)C(F)F)C3)cn2)c(C)c1 [Example 126]
result: 1 to 10 nM

query: Note, next up: COC[C@@]1(N)CCCN(c2cnc(-c3ccc(F)c(F)c3)cc2Cn2cnc3c(N)ncnc32)C1 [Example 23]
result: 1 to 10 nM

query: Note, next up: COc1ccc(-c2cc(Cn3cnc4c(N)nccc43)c(N3CCC[C@@H](N)C3)cn2)cc1F [Example 21]
result: 10 to 1000 nM

query: Note, next up: CNC(=O)CC1(N)CCCN(c2cnc(-c3ccc(F)c(F)c3)cc2Cn2cnc3c(N)ncc(Cl)c32)C1 (centres unmarked) [Example 67]
result: 10 to 1000 nM

query: Note, next up: COc1ccc(-c2cc(Cn3cnc4c(N)ncnc43)c(N3CCC[C@](N)([C@@H](C)OC)C3)cn2)cc1F [Example 94]
result: 10 to 1000 nM
